Source: paper PMC3417418

Biological target: T1, CXCR3 (Homo sapiens, UniProt P49682)
T1 chain: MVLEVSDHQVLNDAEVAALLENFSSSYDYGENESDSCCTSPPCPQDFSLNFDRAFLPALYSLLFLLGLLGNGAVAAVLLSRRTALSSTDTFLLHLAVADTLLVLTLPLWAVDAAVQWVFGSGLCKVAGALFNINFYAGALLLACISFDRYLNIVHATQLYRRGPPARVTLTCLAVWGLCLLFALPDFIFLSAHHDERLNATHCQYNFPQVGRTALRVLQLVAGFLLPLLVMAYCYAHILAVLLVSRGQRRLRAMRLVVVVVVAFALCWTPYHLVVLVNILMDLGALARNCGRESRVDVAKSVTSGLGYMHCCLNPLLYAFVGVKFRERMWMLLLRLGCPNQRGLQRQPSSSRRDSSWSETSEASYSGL
Assay: homologous competition 125I radioligand binding on L1.2 cells
assayEndpoint: Kd (nM)
Your answer is read as nM, so omit the unit and give the number.

### Prompt Please report the recorded Kd for CXCL11 (protein) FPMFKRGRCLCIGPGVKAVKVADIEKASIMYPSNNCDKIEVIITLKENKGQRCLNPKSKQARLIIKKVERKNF .
### Response 2.6
